biological target: KOR (Homo sapiens); test: PDSP competitive binding assay; conditions: Run 2; read-out: Ki, KOR
endpoint: pKi
One number for each entry, as −log10 of the molar value.

# returns recorded pKi (system: KOR (Homo sapiens)) for OCCCN1CC[C@@H]2C[C@H]1c1cc(-c3ccc(C(F)(F)F)cc3)ccc12 5.02

###

target: Alpha1a (Homo sapiens); assay: PDSP competitive binding assay; conditions: read-out: Alpha1a Ki; single determination
endpoint: pKi
One number for each entry, as −log10 of the molar value.

Entry OCCCN1CC[C@@H]2C[C@H]1c1cc(-c3ccc(C(F)(F)F)cc3)ccc12 [FEM-1689] : reported pKi = ? 5.70

// provenance: paper PMC10756276
